Test system: L1210 leukemia ip in BDF1 mice, survival T/C
Assay: NCI In Vivo Anticancer Drug Screen. Data for tumor model L1210 Leukemia (intraperitoneal) in B6D2F1 (BDF1) mice
Conditions: endpoint: mean survival time; dose: 200.0 mg/kg/injection; schedule: Q04DX003 (ip); vehicle: Klucel (hydroxypropylcellulose) (HPC); higher = longer survival
Toxic doses and inconclusive results are not listed. Square brackets hold non-standard residues; d marks the D form. Peptide text beside a SMILES is read from it. * marks the point of attachment. ξ: configuration not given here. Cbz = O=C(OCc1ccccc1)*; OBn = c1ccc(CO*)cc1; ξP = O=C(O)C1CCCN1
Item-by-item account of T/C
ENDPOINT: T/C

> print(dat)
                                    compound           reading
 1                  Cc1ccc(S(=O)(=O)CCCl)cc1  100 % of control
 2              c1cc2c(c(NC3=NCCCS3)c1)CCCC2   95 % of control
 3         O=C(N/N=C/c1ccc(Cl)cc1Cl)c1ccccc1   95 % of control
 4  O=C(Nc1ccc(F)c([N+](=O)[O-])c1)Nc1cc([N+](=O)[O-])ccc1F   93 % of control
 5      Cc1ccc(NC(=O)Nc2ccc(Cl)c(Cl)c2)cc1Cl   96 % of control
 6  O=[N+]([O-])c1cc([N+](=O)[O-])c2nn(-c3ccccc3)[n+]([O-])c2c1   97 % of control
 7          COc1ccc(/C=C/C(=O)c2ccccc2)cc1OC   98 % of control
 8       Cc1ccc(NS(=O)(=O)c2ccc(Cl)cc2)cc1Cl   96 % of control
 9  Cc1cc(=O)[nH]c(N/N=C2/CCCCC2C)n1 (stereo not drawn)   97 % of control
10                  Cc1ccc(Cl)cc1NC(=O)NCCCl   93 % of control
11        Cc1ccc(S(=O)(=O)CC(=O)c2ccccc2)cc1  107 % of control
12  CCCc1c2cc(OC)c(OC)cc2cc2c3cc(OC)c(OC)cc3cc[n+]12 (tested in a mixture with another compound)  110 % of control
13     CCCCCCCCCCCC(=O)NC(=S)Nc1cccc2ccccc12   97 % of control
14                         COC(=O)c1sccc1C=O  104 % of control
15                   CN(C)CCCNC(=O)Nc1ccccc1   93 % of control
16  CC(=O)C1CCC2(C)CCC(=O)C(C)C2C1 (stereo not drawn)  101 % of control
17  CC1(C)C/C(=C\c2cccc(Cl)c2)C(=O)c2ccccc21  106 % of control
18         CCOC(=O)c1cnc(SC)nc1Nc1cccc(Cl)c1   92 % of control
19  CC(=C=CC(c1ccccc1)(c1ccccc1)c1ccccc1)CC(c1ccccc1)(c1ccccc1)c1ccccc1   95 % of control
20                     S=C(S)Nc1cccc2ccccc12   96 % of control
21         Cc1ccc(NC(=O)NCCCl)cc1NC(=O)NCCCl   95 % of control
22         O=C(/C=C/c1ccccc1)NC(=S)NCc1ccco1   95 % of control
23  COc1ccccc1-n1c(O)c(N=Nc2ccccc2)c(=O)n(-c2ccc(C)cc2)c1=S  102 % of control
24  CCOC(=O)C1(C(=O)OCC)CCC2Nc3ccccc3C(=O)N21 (stereo not drawn)   87 % of control
25             Cc1cc(=O)[nH]c(N/N=C/C(C)C)n1   89 % of control
26  CS(=O)(=O)OC1CCCCC1Sc1ccc(Br)cc1 (stereo not drawn)  101 % of control
27                      C1CN(SSN2CCOCC2)CCO1  102 % of control
28  CCc1nc2ccc(N=Cc3ccc(N(CCCl)CCCl)cc3C)cc2[nH]1   98 % of control
29  C(=C1\CC(c2ccccc2)(c2ccccc2)N=N1)/c1ccccc1  114 % of control
30  O=C(CNC(=O)OCc1ccccc1)NCC(=O)N1CCCC1C(=O)OCc1ccccc1 (stereo not drawn) (Cbz-Gly-Gly-[ξP]-OBn)  103 % of control
31        O=C(O)c1ccc([N+](=O)[O-])cc1C(=O)O   87 % of control
32  CN(C)c1ccc2c(c1)C(Br)c1ccccc1-2 (stereo not drawn)   96 % of control
33  Clc1ccc(OCc2sc3ccc(Br)cc3c2CN2CCc3ccccc3C2)cc1   98 % of control
34         Cc1cc(C)c2c(c1)CCc1cc(C)cc(C)c1-2   93 % of control
35        CC(C)(C)C1=CC(=O)C=C(C(C)(C)C)C1=O   87 % of control
36       Clc1ccc(C(c2ccc(Cl)cc2)c2ccccn2)cc1   95 % of control
37  CC(=O)OC1C=CN(C(C)=O)C(SC23CC4CC(CC(C4)C2)C3)C1OC(C)=O (stereo not drawn)  100 % of control
38                         COc1cccc(OC)c1C#N   98 % of control
